Consider the following molecules; for each one, report its pIC50.
Target: UniProt Q13627
Assay: DYRK1A Human CMGC Kinase Enzymatic Radiometric Assay [Km ATP]
Type: biochemical
Settings: radiometric assay, Km ATP; read-out: IC50 hDYRK1A
pIC50: −log10 of the molar value.

Example results:
[[record]]
smiles_entry = "CC(=O)C1=CN(C)c2cc(N(C)C)ccc2C1"
value_observed = "< 5.00"

[[record]]
smiles_entry = "CC(=O)C1=CN(C)c2cc(Br)ccc2C1"
value_observed = "< 5.00"

[[record]]
smiles_entry = "CC(=O)C1=CN(C)c2ccccc2C1"
value_observed = "< 5.00"


// for each molecule in input: emit pIC50
1. COc1ccc2c(c1)N(Cc1ccccc1)C=C(C(C)=O)C2
2. COc1ccc2c(c1)N(C)C=C(C(=O)N(C)OC)C2

// result
5.52
< 5.00

----------
Target: hCLK1 (Homo sapiens, UniProt P49759)
Sequence (P49759 whole entry): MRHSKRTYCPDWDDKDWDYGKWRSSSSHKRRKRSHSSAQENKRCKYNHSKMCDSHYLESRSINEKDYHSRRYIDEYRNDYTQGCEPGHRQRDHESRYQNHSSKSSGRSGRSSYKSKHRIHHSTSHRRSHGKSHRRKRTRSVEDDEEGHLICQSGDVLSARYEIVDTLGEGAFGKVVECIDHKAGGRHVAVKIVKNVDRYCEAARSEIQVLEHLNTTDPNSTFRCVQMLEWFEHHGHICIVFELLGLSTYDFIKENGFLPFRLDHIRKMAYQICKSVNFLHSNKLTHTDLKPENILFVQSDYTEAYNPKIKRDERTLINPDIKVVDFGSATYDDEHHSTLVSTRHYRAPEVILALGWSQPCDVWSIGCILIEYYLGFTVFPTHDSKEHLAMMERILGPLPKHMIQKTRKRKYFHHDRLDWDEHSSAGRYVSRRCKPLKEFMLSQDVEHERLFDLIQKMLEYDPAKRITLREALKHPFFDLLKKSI
Assay: CLK1 Human CMGC Kinase Enzymatic Radiometric Assay [Km ATP]
Assay type: biochemical
Details: quinolinium salt and quinoline intermediates; read-out: IC50 hCLK1 (synthetic intermediates)
Consider the following compounds; for each one, report its IC50.

[[record]]
smiles_entry = "COc1ccc2cc(C(C)=O)cnc2c1"
value_observed = "> 10 µM"


Now for a further compound.
// query Please report the measured IC50 for "COc1ccc2cc(C(C)=O)c[n+](C)c2c1.[I-]"
// result > 10 µM

----------
Target: hDYRK1A (Homo sapiens, UniProt Q13627)
Assay: DYRK1A Human CMGC Kinase Enzymatic Radiometric Assay [Km ATP]
Format: biochemical
Settings: quinolinium salt and quinoline intermediates; read-out: IC50 hDYRK1A (synthetic intermediates)
Consider the following compounds; for each one, report its IC50.

[[record]]
smiles_entry = "COc1ccc2cc(C(C)=O)cnc2c1"
measure_name = "IC50"
value_observed = "> 10 µM"


Now for a further compound.
// query Report value: IC50, system: hDYRK1A (Homo sapiens, UniProt Q13627), compound: "COc1ccc2cc(C(C)=O)c[n+](C)c2c1.[I-]"
// result > 10 µM

----------
Molecular target: hCLK1 (Homo sapiens)
Assay: CLK1 Human CMGC Kinase Enzymatic Radiometric Assay [Km ATP]
Assay type: biochemical
Conditions: radiometric assay, Km ATP; read-out: IC50 hCLK1
Consider the following compounds; for each one, report its IC50.
Answers are plain numbers, in µM.

[[record]]
smiles_entry = "CCOC(=O)C1=CN(C)c2cc(OC)ccc2C1"
measure_name = "IC50"
value_observed = 3.16


// for each compound in input: emit IC50
1. COc1ccc2c(c1)N(Cc1ccccc1)C=C(C(C)=O)C2
2. CCCN1C=C(C(C)=O)Cc2ccc(OC)cc21

// result
0.595
0.047

----------
Target: UniProtKB Q13627
Assay: DYRK1A Human CMGC Kinase Enzymatic Radiometric Assay [Km ATP]
Format: biochemical
Details: radiometric assay, Km ATP; read-out: IC50 hDYRK1A
Consider the following compounds; for each one, report its IC50.

Example results:
[[record]]
compound = "CC(=O)C1=CN(C)c2cc3c(cc2C1)OCO3 [Compound 1g]"
value_observed = "> 10 µM"

[[record]]
compound = "COc1ccc2c(c1)N(C)C=C(C(C)=O)C2 [Compound 1h]"
value_observed = "0.385 µM"

[[record]]
compound = "COc1cc2c(cc1OC)N(C)C=C(C(C)=O)C2 [Compound 1f]"
value_observed = "> 10 µM"

[[record]]
compound = "COc1ccc2c(c1)N(CCc1ccccc1)C=C(C(C)=O)C2 [Compound 1o]"
value_observed = "1.11 µM"


// query Please report the measured IC50 for CC(=O)C1=CN(C)c2cc(C(F)(F)F)ccc2C1 [Compound 1b]
// result > 10 µM
